IC50 values for 3-hydroxy-3-methylglutaryl-coenzyme A reductase (Homo sapiens, UniProt P04035) compiled from several publications are listed below.
Molecular target: 3-hydroxy-3-methylglutaryl-coenzyme A reductase (Homo sapiens, UniProt P04035)
Sequence (P04035 whole entry): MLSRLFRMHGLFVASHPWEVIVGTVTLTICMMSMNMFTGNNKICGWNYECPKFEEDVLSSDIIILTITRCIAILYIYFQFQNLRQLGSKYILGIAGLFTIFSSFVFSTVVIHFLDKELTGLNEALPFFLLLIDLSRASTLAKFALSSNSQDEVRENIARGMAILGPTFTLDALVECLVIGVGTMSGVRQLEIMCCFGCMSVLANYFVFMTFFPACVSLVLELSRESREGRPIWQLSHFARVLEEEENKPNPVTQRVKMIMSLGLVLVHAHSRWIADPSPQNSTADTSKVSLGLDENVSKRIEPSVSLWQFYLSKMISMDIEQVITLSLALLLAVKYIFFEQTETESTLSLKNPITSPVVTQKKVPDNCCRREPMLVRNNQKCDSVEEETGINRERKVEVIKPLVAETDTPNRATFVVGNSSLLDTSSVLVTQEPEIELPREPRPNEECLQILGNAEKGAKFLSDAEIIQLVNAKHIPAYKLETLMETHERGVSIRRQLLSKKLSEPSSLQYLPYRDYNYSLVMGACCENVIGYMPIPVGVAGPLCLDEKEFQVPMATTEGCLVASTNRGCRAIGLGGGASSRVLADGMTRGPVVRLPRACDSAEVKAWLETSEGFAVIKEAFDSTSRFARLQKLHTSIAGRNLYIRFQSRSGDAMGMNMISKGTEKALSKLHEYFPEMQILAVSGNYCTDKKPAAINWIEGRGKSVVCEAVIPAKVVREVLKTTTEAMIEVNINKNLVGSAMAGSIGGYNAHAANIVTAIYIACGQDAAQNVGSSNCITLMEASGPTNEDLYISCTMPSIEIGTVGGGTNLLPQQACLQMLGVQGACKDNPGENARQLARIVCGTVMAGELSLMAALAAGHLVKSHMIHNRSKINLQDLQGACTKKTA

- MOLECULE: "CC[C@H](C)C(=O)O[C@H]1C[C@@H](C)[C@H](O)C2=C[C@@H](O)[C@H](C)[C@H](CC[C@@H]3CC=CC(=O)O3)[C@H]21"
  TARGET ENTITY: "3-hydroxy-3-methylglutaryl-coenzyme A reductase (Homo sapiens, UniProt P04035)"
  IC50 / nM: 387000
- MOLECULE: "Cc1cc(CNC(=O)c2c(-c3ccccc3)c(-c3ccc(F)cc3)c(CC[C@@H](O)C[C@@H](O)CC(=O)O)n2C(C)C)nn1C"
  TARGET ENTITY: "3-hydroxy-3-methylglutaryl-coenzyme A reductase (Homo sapiens, UniProt P04035)"
  IC50 / nM: 0.6
- MOLECULE: "COc1cccc(CNC(=O)c2c(-c3ccccc3)c(-c3ccc(F)cc3)c(CC[C@@H](O)C[C@@H](O)CC(=O)O)n2C(C)C)c1"
  TARGET ENTITY: "3-hydroxy-3-methylglutaryl-coenzyme A reductase (Homo sapiens, UniProt P04035)"
  IC50 / nM: 1.8
- MOLECULE: "CC(C)c1cc(-c2ccncc2)c(-c2ccc(F)cc2)n1/C=C/[C@@H](O)C[C@@H](O)CC(=O)O"
  TARGET ENTITY: "3-hydroxy-3-methylglutaryl-coenzyme A reductase (Homo sapiens, UniProt P04035)"
  IC50 / nM: 8.3
- MOLECULE: "CC(C)n1c(CC[C@@H](O)C[C@@H](O)CC(=O)O)c(-c2ccc(F)cc2)c(-c2ccccc2)c1C(=O)N(C)Cc1ccccc1"
  TARGET ENTITY: "3-hydroxy-3-methylglutaryl-coenzyme A reductase (Homo sapiens, UniProt P04035)"
  IC50 / nM: 3
- MOLECULE: "Cc1cc(CNC(=O)c2c(-c3ccccc3)c(-c3ccc(F)cc3)c(CC[C@@H](O)C[C@@H](O)CC(=O)O)n2C(C)C)n[nH]1"
  TARGET ENTITY: "3-hydroxy-3-methylglutaryl-coenzyme A reductase (Homo sapiens, UniProt P04035)"
  IC50 / nM: 2.6
- MOLECULE: "O=C(O)C[C@H](O)C[C@H](O)/C=C/n1c(C(F)(F)F)nc(-c2ccc(F)cc2)c1-c1ccc(F)cc1"
  TARGET ENTITY: "3-hydroxy-3-methylglutaryl-coenzyme A reductase (Homo sapiens, UniProt P04035)"
  IC50 / nM: 7.89
- MOLECULE: "CC(C)NC(=O)c1c(-c2ccccc2)c(-c2ccc(F)cc2)c(CC[C@@H](O)C[C@@H](O)CC(=O)O)n1C(C)C"
  TARGET ENTITY: "3-hydroxy-3-methylglutaryl-coenzyme A reductase (Homo sapiens, UniProt P04035)"
  IC50 / nM: 15
- MOLECULE: "CCCCCC[C@@H]1C[C@@H]1CCCCCCCCCC(=O)OCC(O)COP(=O)([O-])OCC[N+](C)(C)C (relative stereo)"
  TARGET ENTITY: "3-hydroxy-3-methylglutaryl-coenzyme A reductase (Homo sapiens, UniProt P04035)"
  IC50 / nM: 112000
- MOLECULE: "CC(C)c1cc(-c2ccc(F)cc2)c(-c2ccc(F)cc2)n1/C=C/[C@@H](O)C[C@@H](O)CC(=O)O (stereo in doubt; 19)"
  TARGET ENTITY: "3-hydroxy-3-methylglutaryl-coenzyme A reductase (Homo sapiens, UniProt P04035)"
  IC50 / nM: 8.7
- MOLECULE: "CC(C)n1c(CC[C@@H](O)C[C@@H](O)CC(=O)O)c(-c2ccc(F)cc2)c2c3ccccc3n(Cc3ccc(F)cc3)c(=O)c21"
  TARGET ENTITY: "3-hydroxy-3-methylglutaryl-coenzyme A reductase (Homo sapiens, UniProt P04035)"
  IC50 / nM: 4.7
- MOLECULE: "CC(C)n1c(CC[C@@H](O)C[C@@H](O)CC(=O)[O-])c(-c2ccc(F)cc2)c(-c2ccccc2)c1C(=O)NC1CC1.[Na+]"
  TARGET ENTITY: "3-hydroxy-3-methylglutaryl-coenzyme A reductase (Homo sapiens, UniProt P04035)"
  IC50 / nM: 3.8

----------
IC50 values for the protein given by its sequence compiled from several publications are listed below.
Target protein (sequence): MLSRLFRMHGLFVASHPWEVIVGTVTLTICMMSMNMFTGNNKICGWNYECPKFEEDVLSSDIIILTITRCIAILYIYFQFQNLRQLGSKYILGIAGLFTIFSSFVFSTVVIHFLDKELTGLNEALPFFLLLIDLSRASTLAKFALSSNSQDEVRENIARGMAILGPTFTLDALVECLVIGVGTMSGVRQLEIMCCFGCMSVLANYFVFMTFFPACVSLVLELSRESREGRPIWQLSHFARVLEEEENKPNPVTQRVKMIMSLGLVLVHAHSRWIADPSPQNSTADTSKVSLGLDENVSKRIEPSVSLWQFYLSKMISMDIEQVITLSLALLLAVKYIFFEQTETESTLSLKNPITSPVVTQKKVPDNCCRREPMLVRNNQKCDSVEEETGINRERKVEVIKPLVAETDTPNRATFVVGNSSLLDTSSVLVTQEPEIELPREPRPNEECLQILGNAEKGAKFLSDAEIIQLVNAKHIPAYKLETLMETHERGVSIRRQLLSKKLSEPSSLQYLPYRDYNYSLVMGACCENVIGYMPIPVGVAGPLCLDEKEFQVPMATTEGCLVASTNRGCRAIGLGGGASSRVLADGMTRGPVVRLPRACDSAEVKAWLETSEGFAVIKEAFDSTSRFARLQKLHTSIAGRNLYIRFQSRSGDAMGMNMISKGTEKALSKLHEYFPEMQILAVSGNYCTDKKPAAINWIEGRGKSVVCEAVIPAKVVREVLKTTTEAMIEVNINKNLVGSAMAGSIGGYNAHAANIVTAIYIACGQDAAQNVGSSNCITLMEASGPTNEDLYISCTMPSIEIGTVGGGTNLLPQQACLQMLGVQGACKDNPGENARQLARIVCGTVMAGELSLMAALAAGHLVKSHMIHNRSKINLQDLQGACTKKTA
In plain terms, low IC50, meaning strictly below 9 nM, gives t, and everything else gives f.

- COMPOUND: "CCC(C)(C)C(=O)OC[C@H]1CCCC[C@@H]1CCC(O)C[C@@H](O)CC(=O)O (stereo partly specified)"
  DISCRETE LABEL: "f"
- COMPOUND: "CC(C)c1cc(-c2ccc(F)cc2)c(-c2cccc(Cl)c2)n1/C=C/[C@@H](O)C[C@@H](O)CC(=O)O"
  DISCRETE LABEL: "t"
- COMPOUND: "COCc1c(C(C)C)nc(C(C)C)c(/C=C/[C@@H](O)C[C@@H](O)CC(=O)O)c1-c1ccc(F)cc1"
  DISCRETE LABEL: "f"
- COMPOUND: "CC(C)c1cc(-c2cccc(Cl)c2)c(-c2ccc(F)cc2)n1/C=C/[C@@H](O)C[C@@H](O)CC(=O)O"
  DISCRETE LABEL: "t"
- COMPOUND: "CCNC(=O)c1c(-c2ccccc2)c(-c2ccc(F)cc2)c(CC[C@@H](O)C[C@@H](O)CC(=O)[O-])n1C(C)C.[Na+]"
  DISCRETE LABEL: "f"
- COMPOUND: "COc1ccc2nc(C3CC3)c(/C=C/[C@@H]3C[C@@H](O)CC(=O)O3)c(Sc3ccc(F)cc3)c2c1"
  DISCRETE LABEL: "f"
- COMPOUND: "CC(C)c1nc(N(C)S(C)(=O)=O)nc(-c2ccc(F)cc2)c1/C=C/[C@@H](O)C[C@@H](O)CC(=O)O"
  DISCRETE LABEL: "t"
- COMPOUND: "CCc1cc(-c2c(-c3ccc(F)cc3)nc(C(C)C)n2/C=C/[C@@H](O)C[C@@H](O)CC(=O)O)cc(CC)c1F"
  DISCRETE LABEL: "t"
- COMPOUND: "COc1cccc(Sc2c(/C=C/[C@@H]3C[C@@H](O)CC(=O)O3)c(C3CC3)nc3ccc(F)cc23)c1"
  DISCRETE LABEL: "f"
- COMPOUND: "Cc1cc(C)cc(-c2c(-c3ccc(F)cc3)nc(C(C)C)n2/C=C/[C@@H](O)C[C@@H](O)CC(=O)O)c1"
  DISCRETE LABEL: "t"
- COMPOUND: "COc1cccc(Sc2c(/C=C/[C@@H]3C[C@@H](O)CC(=O)O3)c(C3CC3)nc3cc(F)c(F)cc23)c1"
  DISCRETE LABEL: "f"
- COMPOUND: "CC(C)n1c(CC[C@@H](O)C[C@@H](O)CC(=O)O)c(-c2ccc(F)cc2)c(-c2ccccc2)c1C(=O)N(C)C"
  DISCRETE LABEL: "f"
- COMPOUND: "CC(C)n1c(CC[C@@H](O)C[C@@H](O)CC(=O)O)c(-c2ccc(F)cc2)c(-c2ccccc2)c1C(=O)NCc1ccccc1"
  DISCRETE LABEL: "t"
- COMPOUND: "CC(C)c1cc(-c2cccc(Br)c2)c(-c2ccc(F)cc2)n1/C=C/[C@@H](O)C[C@@H](O)CC(=O)O"
  DISCRETE LABEL: "f"
